Tested on: PLK1;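 also: KINOMEscan kinase panel screen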
Condition set: concentration: 1 μM, replicates: in singlicate; n = 1
This listing pairs molecules with measured %Inh.
Report the value in % with no unit label.

Solved entries:
CCc1nc(-c2cccc(C)c2)c(-c2ccnc(NCc3ccccc3)c2)s1: 0
Cc1c(Cn2c(C)nn3c(=O)cc(N4CCOC(C)C4)nc23)cccc1C(F)(F)F (centres unmarked) [GSK2344444]: 0
O=C(Nc1cccc(-c2nn3ncccc3c2-c2ccnc(Nc3cccc(C(F)(F)F)c3)n2)c1)c1c(F)cccc1F [GSK299495]: 0
COc1ccc(COc2cc(-n3cnc4ccccc43)sc2C(N)=O)cc1 [GSK1024304]: 97.4

# input for lookup
Prompt: # return recorded %Inh for input Cc1nnc(-c2ccc3occ(-c4ccc(C(C)O)cc4)c3c2)o1 (centres unmarked)
Completion: 2
